- System: Jurkat
- assay-details: Antiproliferative activity against human Jurkat cells measured after 7 days by Celltiter-glo assay
- Assay type: functional, cell-based
- test-settings: 168 h
quantity-kind: IC50

- smiles-record: "Nc1cc(C(F)(F)F)c(-c2nc3c(c(N4CCOCC4)n2)CCN(C(=O)c2cc(Cc4n[nH]c(=O)c5ccccc45)ccc2F)C3)cn1"
  quantity-kind: "IC50"
  measured-result: "933 nM"
- smiles-record: "Nc1cc(C(F)(F)F)c(-c2cc(N3CCOCC3)nc(N3CCOCC3)n2)cn1"
  quantity-kind: "IC50"
  measured-result: "1410 nM"
- smiles-record: "O=C(c1cc(Cc2n[nH]c(=O)c3ccccc23)ccc1F)N1CCN(C(=O)C2CC2)CC1"
  quantity-kind: "IC50"
  measured-result: "1700 nM"

---

- assay-system: UniProtKB P09874
- Sequence (P09874 whole entry): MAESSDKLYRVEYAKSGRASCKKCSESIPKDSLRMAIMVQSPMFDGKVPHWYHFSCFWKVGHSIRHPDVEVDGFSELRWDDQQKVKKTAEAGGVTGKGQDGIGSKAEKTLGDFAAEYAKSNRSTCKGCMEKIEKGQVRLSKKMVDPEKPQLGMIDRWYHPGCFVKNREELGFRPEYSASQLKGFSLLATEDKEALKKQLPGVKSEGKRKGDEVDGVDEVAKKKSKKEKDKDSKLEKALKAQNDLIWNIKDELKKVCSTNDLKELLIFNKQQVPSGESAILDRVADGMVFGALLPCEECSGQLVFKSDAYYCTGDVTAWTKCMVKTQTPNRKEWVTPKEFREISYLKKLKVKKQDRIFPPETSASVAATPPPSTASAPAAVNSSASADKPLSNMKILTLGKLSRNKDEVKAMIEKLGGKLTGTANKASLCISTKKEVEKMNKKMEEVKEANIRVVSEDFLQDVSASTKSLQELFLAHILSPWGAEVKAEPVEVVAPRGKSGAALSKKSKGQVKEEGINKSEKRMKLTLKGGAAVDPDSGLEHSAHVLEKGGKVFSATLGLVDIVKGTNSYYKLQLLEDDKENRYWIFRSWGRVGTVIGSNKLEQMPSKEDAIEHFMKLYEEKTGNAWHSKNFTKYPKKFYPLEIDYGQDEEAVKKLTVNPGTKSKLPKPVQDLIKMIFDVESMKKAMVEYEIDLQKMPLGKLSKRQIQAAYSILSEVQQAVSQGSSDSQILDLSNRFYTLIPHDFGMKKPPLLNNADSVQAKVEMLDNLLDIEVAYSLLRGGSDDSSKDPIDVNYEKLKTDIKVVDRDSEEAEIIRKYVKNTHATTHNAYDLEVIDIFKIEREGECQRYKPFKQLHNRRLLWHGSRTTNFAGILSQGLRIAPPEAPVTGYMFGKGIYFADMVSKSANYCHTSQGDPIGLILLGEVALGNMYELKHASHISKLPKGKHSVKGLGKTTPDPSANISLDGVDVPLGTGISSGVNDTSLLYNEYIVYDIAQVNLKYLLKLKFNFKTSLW
- assay-details: Inhibition of recombinant human PARP1 using histone as substrate after 1 hr in presence of biotinylated NAD+ by ELISA

- smiles-record: "Nc1cc(-c2nc(N3CCOCC3)nc(N3CCN(C(=O)c4cc(Cc5n[nH]c(=O)c6ccccc56)ccc4F)CC3)n2)ccc1F"
  IC50 / nM: 1.1
- smiles-record: "O=C(c1cc(Cc2n[nH]c(=O)c3ccccc23)ccc1F)N1CCN(c2nc(-c3cccc4[nH]ccc34)nc(N3CCOCC3)n2)CC1"
  IC50 / nM: 0.646
- smiles-record: "Nc1ccc(-c2nc(N3CCOCC3)nc(N3CCN(C(=O)c4cc(Cc5n[nH]c(=O)c6ccccc56)ccc4F)CC3)n2)c(F)c1"
  IC50 / nM: 0.724
- smiles-record: "O=C(c1cc(Cc2n[nH]c(=O)c3ccccc23)ccc1F)N1CCN(c2nc(-c3ccc4cn[nH]c4c3)nc(N3CCOCC3)n2)CC1"
  IC50 / nM: 0.676

---

- assay-system: Phosphatidylinositol 4,5-bisphosphate 3-kinase catalytic subunit alpha isoform (Homo sapiens)
- Sequence (P42336 whole entry, canonical isoform): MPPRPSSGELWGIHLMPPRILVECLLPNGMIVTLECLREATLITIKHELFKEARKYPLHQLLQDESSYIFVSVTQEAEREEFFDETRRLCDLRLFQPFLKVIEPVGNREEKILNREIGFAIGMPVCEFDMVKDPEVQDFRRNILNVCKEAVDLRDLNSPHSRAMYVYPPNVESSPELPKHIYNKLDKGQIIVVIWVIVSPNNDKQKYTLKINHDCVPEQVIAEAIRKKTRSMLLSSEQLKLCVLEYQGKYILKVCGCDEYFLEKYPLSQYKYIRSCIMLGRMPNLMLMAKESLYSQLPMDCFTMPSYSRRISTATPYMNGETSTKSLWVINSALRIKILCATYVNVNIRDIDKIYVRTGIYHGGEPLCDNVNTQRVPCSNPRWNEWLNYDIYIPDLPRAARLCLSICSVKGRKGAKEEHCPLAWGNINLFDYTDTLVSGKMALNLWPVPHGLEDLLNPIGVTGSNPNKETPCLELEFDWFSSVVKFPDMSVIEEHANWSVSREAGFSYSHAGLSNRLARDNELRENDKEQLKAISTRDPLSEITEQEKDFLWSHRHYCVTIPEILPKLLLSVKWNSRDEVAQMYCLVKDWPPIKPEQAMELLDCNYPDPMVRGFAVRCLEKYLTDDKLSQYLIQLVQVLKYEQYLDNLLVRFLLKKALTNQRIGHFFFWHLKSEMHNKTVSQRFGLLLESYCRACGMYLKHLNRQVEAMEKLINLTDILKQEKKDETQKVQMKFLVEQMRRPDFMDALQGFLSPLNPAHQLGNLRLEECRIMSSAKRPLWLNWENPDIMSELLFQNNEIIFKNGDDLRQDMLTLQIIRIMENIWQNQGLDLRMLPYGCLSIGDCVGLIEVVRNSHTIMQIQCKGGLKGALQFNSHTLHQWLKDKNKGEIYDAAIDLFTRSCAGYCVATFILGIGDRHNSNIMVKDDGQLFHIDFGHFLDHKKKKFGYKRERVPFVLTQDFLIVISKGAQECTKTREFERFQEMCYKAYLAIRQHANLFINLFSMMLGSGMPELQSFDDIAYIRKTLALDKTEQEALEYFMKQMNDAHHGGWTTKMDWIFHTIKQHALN
- assay-details: Inhibition of PI3Kalpha (unknown origin) using PIP2 as substrate measured after 1 hr by ADP-glo plus luminescence assay
pIC50: −log10 of the molar value.
Give label 1 when the value for pIC50 is at least 7. Give label 0 when it is less.

- smiles-record: "O=C(c1cc(Cc2n[nH]c(=O)c3ccccc23)ccc1F)N1CCN(c2nc(-c3cccc4[nH]ncc34)nc(N3CCOCC3)n2)CC1"
  category: "label 0"
- smiles-record: "Nc1cc(C(F)(F)F)c(-c2cc(N3CCN(C(=O)c4cc(Cc5n[nH]c(=O)c6ccccc56)ccc4F)CC3)nc(N3CCOCC3)n2)cn1"
  category: "label 0"
- smiles-record: "Nc1cc(C(F)(F)F)c(-c2nc3c(c(N4CCOCC4)n2)CCN(C(=O)c2cc(Cc4n[nH]c(=O)c5ccccc45)ccc2F)C3)cn1"
  category: "label 1"
- smiles-record: "Nc1cc(C(F)(F)F)c(-c2nc(N3CCOCC3)nc(N3CCN(C(=O)c4cc(Cc5n[nH]c(=O)c6ccccc56)ccc4F)CC3)n2)cn1"
  category: "label 0"
- smiles-record: "O=C(c1cc(Cc2n[nH]c(=O)c3ccccc23)ccc1F)N1CCN(c2nc(-c3cccc4[nH]ccc34)nc(N3CCOCC3)n2)CC1"
  category: "label 0"
- smiles-record: "Nc1ncc(-c2nc3c(c(N4CCOCC4)n2)CCN(C(=O)c2cc(Cc4n[nH]c(=O)c5ccccc45)ccc2F)C3)cn1"
  category: "label 1"
- smiles-record: "O=C(c1cc(Cc2n[nH]c(=O)c3ccccc23)ccc1F)N1CCc2c(nc(-c3cccc4[nH]ccc34)nc2N2CCOCC2)C1"
  category: "label 1"
- smiles-record: "Nc1ccc(-c2nc3c(c(N4CCOCC4)n2)CCN(C(=O)c2cc(Cc4n[nH]c(=O)c5ccccc45)ccc2F)C3)cn1"
  category: "label 1"
- smiles-record: "Nc1cc(-c2nc(N3CCOCC3)nc(N3CCN(C(=O)c4cc(Cc5n[nH]c(=O)c6ccccc56)ccc4F)CC3)n2)ccc1F"
  category: "label 0"
- smiles-record: "O=C(c1cc(Cc2n[nH]c(=O)c3ccccc23)ccc1F)N1CCc2c(nc(-c3cccc4[nH]ncc34)nc2N2CCOCC2)C1"
  category: "label 1"
- smiles-record: "Nc1ccc(-c2nc(N3CCOCC3)nc(N3CCN(C(=O)c4cc(Cc5n[nH]c(=O)c6ccccc56)ccc4F)CC3)n2)cc1F"
  category: "label 0"
